# TARGET OR TEST SYSTEM: T1, Bicoid DBD-GST (Bcd) (UniProt P09081 83-170)
# T1 sequence: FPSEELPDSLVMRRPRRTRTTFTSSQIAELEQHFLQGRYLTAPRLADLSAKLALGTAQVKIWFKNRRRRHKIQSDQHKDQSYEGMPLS
# EXPERIMENT: competitive fluorescence anisotropy (HiP-FA); mean of replicates 49.725, 45.8965; HiP-FA: 33 mM phosphate pH 7.0, 90 mM NaCl, 0.01% Tween 20, 0.1 mM DTT, 0.5% agarose; conventional titration and EMSA: 20 mM Tris-acetate pH 7.0, 50 nM (sic) NaCl, 0.01% Tween-20, 0.1 mM DTT
# PARTICULARS: protein: recombinant; tags: N-terminal GST; blunt, G:G mismatch at position 6
pKd: −log10 of the molar value.
MEASUREMENT LABEL: pKd

1. Bcd competitor 24 (C8A) (dsDNA) DNA 1: TCGACGGTAATACCTA DNA 2: TAGGTATTACGGTCGA; 7.32

Provenance of the data: paper PMC5913336
